# Test system: PC-3
# procedure.details: Antiproliferative activity against human PC3 cells after 24 hrs by MTT assay
# Assay type: functional, cell-based
# study.conditions: PC-3, 24 h
observation.type: IC50 (µM)
Supply the numeric figure in µM, leaving out any unit text.

Worked cases, IC50 given:
| molecule | experimental.system | unit.abbreviation | IC50 |
| --- | --- | --- | --- |
| O=C(O)CCCc1ccccc1 | PC-3 | µM | 2270 |
| O=C(CCCc1ccccc1)OC(CCCN1CCC(O)(c2ccc(Cl)cc2)CC1)c1ccc(F)cc1 (racemic) | PC-3 | µM | 12.9 |

Now take the following molecule into account.
The recorded IC50 for entry OC(CCCN1CCC(O)(c2ccc(Cl)cc2)CC1)c1ccc(F)cc1 (stereo not drawn) [HYDROXYHALOPERIDOL] equals 208

###

# experimental.system: D(3) dopamine receptor (Rattus norvegicus)
# Sequence (P19020 whole entry): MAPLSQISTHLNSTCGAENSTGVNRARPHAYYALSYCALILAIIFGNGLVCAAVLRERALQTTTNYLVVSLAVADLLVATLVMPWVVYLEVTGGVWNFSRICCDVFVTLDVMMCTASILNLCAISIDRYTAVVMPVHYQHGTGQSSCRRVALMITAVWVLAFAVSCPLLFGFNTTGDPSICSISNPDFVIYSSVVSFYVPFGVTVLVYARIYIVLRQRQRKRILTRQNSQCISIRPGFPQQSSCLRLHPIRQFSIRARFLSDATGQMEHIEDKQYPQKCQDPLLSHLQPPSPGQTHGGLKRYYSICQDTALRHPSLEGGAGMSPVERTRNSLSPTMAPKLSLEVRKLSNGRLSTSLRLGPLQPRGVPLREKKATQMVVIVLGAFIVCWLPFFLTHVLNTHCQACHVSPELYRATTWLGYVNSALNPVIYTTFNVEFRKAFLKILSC
observation.type: pKi
In textbook form, pKi equals minus log to base ten of the concentration in mol/L.

The recorded pKi for entry OC(CCCN1CCC(O)(c2ccc(Cl)cc2)CC1)c1ccc(F)cc1 (configuration not stated) [HYDROXYHALOPERIDOL] equals 5.96

###

# procedure.details: Displacement of [3H]DTG from sigma 2 receptor in guinea pig brain membrane after 120 mins by liquid scintillation counting
# Type: cell membranes, Cavia porcellus
Parameter pKi: see the listing below.
In textbook form, pKi equals minus log to base ten of the concentration in mol/L.

Worked cases, pKi given:
| molecule | reported.value |
| --- | --- |
| O=C(CCCc1ccccc1)OC(CCCN1CCC(O)(c2ccc(Cl)cc2)CC1)c1ccc(F)cc1 (racemic) | 6.98 |
| O=C(CCCN1CCC(O)(c2ccc(Cl)cc2)CC1)c1ccc(F)cc1 | 7.80 |

The recorded pKi for entry OC(CCCN1CCC(O)(c2ccc(Cl)cc2)CC1)c1ccc(F)cc1 (centres undefined) [HYDROXYHALOPERIDOL] equals 9.01

###

# experimental.system: D(2) dopamine receptor (Rattus norvegicus)
# Sequence (P61169 whole entry): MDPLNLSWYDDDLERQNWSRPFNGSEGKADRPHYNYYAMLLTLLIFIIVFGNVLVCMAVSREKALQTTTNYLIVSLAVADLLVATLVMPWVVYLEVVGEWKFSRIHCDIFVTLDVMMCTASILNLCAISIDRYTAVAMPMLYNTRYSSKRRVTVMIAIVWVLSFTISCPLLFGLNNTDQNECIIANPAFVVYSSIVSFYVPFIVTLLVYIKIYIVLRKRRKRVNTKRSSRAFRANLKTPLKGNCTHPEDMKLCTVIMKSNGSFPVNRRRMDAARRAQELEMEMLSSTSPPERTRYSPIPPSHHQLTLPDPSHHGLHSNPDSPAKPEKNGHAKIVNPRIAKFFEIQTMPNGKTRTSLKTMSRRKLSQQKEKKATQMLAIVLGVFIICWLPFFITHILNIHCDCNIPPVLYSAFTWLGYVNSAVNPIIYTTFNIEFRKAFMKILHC
# procedure.details: Displacement radioligand form dopamine D2 receptor in rat striatum by liquid scintillation counting
observation.type: Ki

The recorded Ki for entry O=C(CCCc1ccccc1)OC(CCCN1CCC(O)(c2ccc(Cl)cc2)CC1)c1ccc(F)cc1 (racemic) equals > 5 µM

src = ChEMBL document CHEMBL1649346
